Cited source for all entries: patent US8222416B2

Assign SC1.5 to each entry below.
Target entity: Recombinant human liver GK1 (GST-GK) (Homo sapiens)
Construct: made in house; host or cells: E. coli
Sequence (P35557 1-466 isoform P35557-2): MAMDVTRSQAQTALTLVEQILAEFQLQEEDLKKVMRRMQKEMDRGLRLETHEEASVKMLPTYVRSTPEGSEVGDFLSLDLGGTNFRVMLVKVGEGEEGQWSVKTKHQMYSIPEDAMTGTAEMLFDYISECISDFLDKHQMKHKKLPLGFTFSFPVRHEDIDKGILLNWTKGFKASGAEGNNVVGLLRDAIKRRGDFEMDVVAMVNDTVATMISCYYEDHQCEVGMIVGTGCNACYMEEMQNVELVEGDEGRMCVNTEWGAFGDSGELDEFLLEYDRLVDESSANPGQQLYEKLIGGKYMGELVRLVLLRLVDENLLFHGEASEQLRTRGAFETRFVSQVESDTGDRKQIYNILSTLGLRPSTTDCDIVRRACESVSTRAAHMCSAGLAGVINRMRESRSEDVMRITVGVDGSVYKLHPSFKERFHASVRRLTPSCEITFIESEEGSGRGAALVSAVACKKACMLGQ
Measurement description: In vitro glucokinase activity assay (G6PDH-coupled, NADH, OD340)
Format: biochemical
Conditions used: concentration of activator that produced a 50% increase in the activity of GK; 5 mM D-glucose, 30° C.
Method: Glucokinase In Vitro Assay Protocol: Glucokinase (GK) was assayed by coupling the production of glucose-6-phosphate to the generation of NADH with glucose-6-phosphate dehydrogenase (G6PDH, 0.75-1 kunits/mg; Boehringer Mannheim, Indianapolis, Ind.) from Leuconostoc mesenteroides as the coupling enzyme (Scheme 2). […] After addition of enzyme, the increase in optical density (OD) at 340 nm was monitored spectrophotometrically to determine the rate of change (OD340 per min). […]
Don't forget the unit after the number, please.

Given the entry CCOCCS(=O)(=O)c1ccc(C(CC2CCCC2)c2cc3cccnc3[nH]2)cc1 (centres unmarked) , report its measured SC1.5. 0.73 µM

What about this compound? O=S(=O)(CCO)c1ccc(C(CC2CCCC2)c2cc3cccnc3[nH]2)cc1 (centres unmarked) 0.832 µM

I would be grateful if you could provide SC1.5 for each of the following entries.
1. N#Cc1ccc([C@@H](CC2CCCC2)c2cc3cc(F)cnc3[nH]2)cc1 (single isomer, unassigned)
2. CS(=O)(=O)c1ccc(C(CC2CCCC2)c2cc3cc(Cl)cnc3[nH]2)cc1 (centres unmarked)
3. CC(C)(O)c1ccc(C(CC2CCOCC2)c2cc3cc(F)cnc3[nH]2)cc1F (centres unmarked)
4. COc1cccc(C(CC(C)C)c2cc3cccnc3[nH]2)c1 (centres unmarked)
5. Cc1cnc2[nH]c([C@H](CC3CCCC3)c3ccc(C(C)(C)O)c(F)c3)cc2c1 (single isomer, unassigned)
6. O=S(=O)(CCO)c1ccc(C(CC2CCOCC2)c2cc3cc(F)cnc3[nH]2)cc1 (centres unmarked)

0.343 µM
0.15 µM
2.2 µM
12.9 µM
2.6 µM
2.5 µM
